Assay: amyloid nucleation score (Sup35N fusion, yeast selection) (log enrichment); library NNK2; higher = more nucleation; inactive = no reads after selection;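 note: zero at mode of non-aggregating sequences after 7 days selection at 30°C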
value_kind: amyloid nucleation score

- ordered_residues: "APANVRWLNFSGLDSNGCPY"
  observed_measurement: "inactive"
- ordered_residues: "RVSHREFYLRGTLVETLLDD"
  observed_measurement: "inactive"
- ordered_residues: "CMFGEEFGLNKNVVGSLGLY"
  observed_measurement: "inactive"
- ordered_residues: "MLVDVLGC"
  observed_measurement: "inactive"
- ordered_residues: "YRVYLVFYDFVFVFYMSKYL"
  observed_measurement: "inactive"

Please examine the following record next.
Measured amyloid nucleation score of FYKLNGKNWSRVKVPHSWLF : inactive

Taken from the supplement of paper PMC12042874.
